Could you please report measured TGI for the items listed next?
Tested on: HT29 colon
Assay: NCI tumour cell line growth inhibition, 48 h
Give bare numbers, in µM.

Solved cases below.
- Compound: "C[C@]12CC[C@@H]3c4ccc(O)c([N+](=O)[O-])c4CC[C@H]3[C@@H]1CC[C@@H]2NS(=O)(=O)c1ccc(C(F)(F)F)cc1"
  Target desc: "HT29 colon"
  Measurement kind: "TGI"
  Experimental value: 3.71
- Compound: "CCOc1snc(C(Cl)(Cl)Cl)c1Cl"
  Target desc: "HT29 colon"
  Measurement kind: "TGI"
  Experimental value: 28.9

Parameter requested: TGI. Apply to each item below.
1. CCOc1ccc(NCC2CC/C(=C\C=C\c3ccccc3)C2=O)cc1 (stereo not drawn)
2. C=C1C[C@@H]2CC[C@@]34C[C@H]5O[C@H]6[C@@H](O3)[C@H]3O[C@H](CC[C@@H]3O[C@H]6[C@H]5O4)CC(=O)C[C@@H]3[C@@H](OC)[C@@H](C[C@H](O)CN)O[C@H]3C[C@H]3O[C@@H](CC[C@@H]1O2)C[C@@H](C)C3=C

1: 30.3; 2: 0.0133

----------
System: BT-549 breast
Test: NCI tumour cell line growth inhibition, 48 h
Could you please report measured TGI for the items listed next?

- Compound: "CCOc1ccc(N=Nc2ccc3cc(/C(C)=N/NC(=O)/C(C#N)=C\\c4ccc(N(CCC#N)CCC#N)cc4)c(=O)oc3c2)cc1"
  TGI: "> 10 µM"
- Compound: "N#Cc1ccc(-c2nc(C#N)c(N)o2)cc1"
  TGI: "> 10 µM"
- Compound: "CCOC(=O)/C=C(/C=C\\COC1CCCCO1)c1ccccc1 (stereo not drawn)"
  TGI: "> 100 µM"
- Compound: "C=C(C)[C@H]1CC(=O)/C(C)=C\\CC/C(C)=C/CC[C@@]2(C)O[C@@H]2C1"
  TGI: "> 100 µM"
- Compound: "COc1cc(-c2oc3ccccc3c(=O)c2O)cc(OC)c1OC"
  TGI: "> 100 µM"
- Compound: "Cc1nnc2n1-c1ccccc1N(Cc1ccccc1)CC2"
  TGI: "76.2 µM"
- Compound: "C=C1CC(COc2ccc3c(C)c(C)c(=O)oc3c2C)(c2ccccc2)OC1=O (stereo not drawn)"
  TGI: "3.17 µM"
- Compound: "CCOC(=O)c1c(NC(=O)c2ccc(C(C)C)cc2)sc2c(CN(C)C)c(O)ccc12"
  TGI: "5.35 µM"
- Compound: "COc1cc2cc(Oc3ccc(NC(=O)c4cccc(C(F)(F)F)c4)cc3)c(C)nc2cc1OC"
  TGI: "> 100 µM"
- Compound: "Fc1cccc(COc2ccc(Nc3ncnc4sc(-c5ccco5)cc34)cc2Cl)c1"
  TGI: "> 25 µM"

Parameter requested: TGI. Apply to each item below.
1. Cc1ccc(S(=O)(=O)c2c(O)c3ccc(O)c(C)c3oc2=O)cc1
2. CSc1ccc(/C=C2\CNC/C(=C\c3ccc(SC)cc3)C2=O)cc1

1. > 100 µM
2. > 371 µM

Parameter requested: TGI. Apply to each item below.
1. CC(CO)[C@H]1OC(=O)C=C2[C@@]13O[C@@H]3[C@H]1OC(=O)[C@@]3(C)[C@H]4O[C@H]4C[C@@]2(C)[C@@H]13 (stereo partly drawn)
2. CCc1nc(N)nc(N)c1-c1ccc([N+](=O)[O-])c(NCc2ccccc2)c1
3. C=C1C[C@@H]2CC[C@@]34C[C@H]5O[C@H]6[C@@H](O3)[C@H]3O[C@H](CC[C@@H]3O[C@H]6[C@H]5O4)CC(=O)C[C@@H]3[C@@H](OC)[C@@H](C[C@H](O)CN)O[C@H]3C[C@H]3O[C@@H](CC[C@@H]1O2)C[C@@H](C)C3=C
4. COc1ccc(Cl)cc1Nc1nc(C(F)(F)F)ccc1C(=O)NN
5. CC1(C)N=C(N)N=C(N)N1c1cccc(OCc2cccc(N)c2)c1
6. C[C@]12CC[C@@H]3c4ccc(O)c([N+](=O)[O-])c4CC[C@H]3[C@@H]1CC[C@@H]2NS(=O)(=O)c1ccc(C(F)(F)F)cc1

8.2 µM
47.1 µM
> 1 µM
> 100 µM
> 100 µM
3.03 µM
